ASSAY INFO: M. tuberculosis growth inhibition, HTS (AID 1259417);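 also: bacteria grown with compound for 5 days at 37 °C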
EXPERIMENTAL CONDITIONS: M. tuberculosis growth inhibition; stronger effect = higher value; concentration not given here
About 760 (69%) of roughly 1,100 compounds were called active. So high a share suggests a set chosen from earlier hits. The list shows a part of the results.
VALUE TYPE: inhibition (%)
Numbers only here, please. The scale is %.

COMPOUND SMILES: CCOC(=O)C1CCN(C2=NC(=O)C(=Cc3ccc(Cl)cc3Cl)S2)CC1
inhibition (%): 55.8

COMPOUND SMILES: COc1ccccc1C(=O)Nc1sc2c(c1C(=O)NCc1ccco1)CCC2
inhibition (%): -6.54

Field request: inhibition | item: "O=C(NCc1ccco1)c1cc([N+](=O)[O-])cc([N+](=O)[O-])c1"
93.5

====

ASSAY INFO: M. tuberculosis growth inhibition, HTS (AID 1259417);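 also: bacteria grown with compound for 5 days at 37 °C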
EXPERIMENTAL CONDITIONS: M. tuberculosis growth inhibition; stronger effect = higher value; concentration not given here
Hit rate of the full screen: of about 1,100 compounds, about 760 (69%) were called active. So high a share suggests a set chosen from earlier hits. Some of the results follow.
Listed here are compounds together with their documented inhibition.
Numbers only here, please. The scale is %.

Would you please look over these solved cases?
COMPOUND SMILES: O=C(c1cccs1)N(CCCn1ccnc1)c1nc2c(Cl)cccc2s1
inhibition / %: 98.4
//
COMPOUND SMILES: COc1cccc(NC(=O)c2c(NC(=O)c3cccnc3)sc3c2CCC3)c1
inhibition / %: 95.5
//
COMPOUND SMILES: COC(=O)c1ccc(NC(=O)CC23CC4CC(CC(C4)C2)C3)cc1
inhibition / %: -0.346

Moving on to another compound below.
Field request: inhibition | item: "CCOC(=O)CSCC(=O)Nc1c(C(=O)C2CC2)oc2ccccc12"
48.3

====

ASSAY INFO: M. tuberculosis growth inhibition, HTS (AID 1259417);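 also: bacteria grown with compound for 5 days at 37 °C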
EXPERIMENTAL CONDITIONS: M. tuberculosis growth inhibition; stronger effect = higher value; concentration not given here
Among all 1,100 compounds or so, about 760 (69%) were called active. So high a share suggests a set chosen from earlier hits. Some of the results follow.
Listed here are molecules together with their documented inhibition.
Numbers only here, please. The scale is %.

Would you please look over these solved cases?
MOLECULE: O=C(Nc1cccc(Br)c1)c1ccc(-c2ccc(Cl)cc2)o1
inhibition, %: 21
//
MOLECULE: CCc1nnc(NC(=O)c2cc3ccccc3oc2=O)s1
inhibition, %: 47
//
MOLECULE: CCC(C)c1ccc(O)c(NC(=S)NC(=O)c2ccc(-c3ccc(Cl)cc3)o2)c1 (stereo not drawn)
inhibition, %: 78.2
//
MOLECULE: O=S1(=O)C=C(Sc2nnc(-c3ccncc3)o2)c2ccccc21
inhibition, %: 101
//
MOLECULE: Cc1cccc2sc(N(CCCn3ccnc3)C(=O)c3ccco3)nc12
inhibition, %: 99.8

Field request: inhibition | item: CC1CCCN(CCC(=O)c2ccc(Br)cc2)C1 (stereo not drawn)
84.5

Repeat with "O=C(Nc1nnc(-c2cc(Cl)ccc2Cl)o1)c1cccs1"
82.4

Repeat with "Cc1ccc2sc(N(CCCn3ccnc3)C(=O)c3ccco3)nc2c1C"
98.1

====

ASSAY INFO: M. tuberculosis growth inhibition, HTS (AID 1259417);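 also: bacteria grown with compound for 5 days at 37 °C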
EXPERIMENTAL CONDITIONS: M. tuberculosis growth inhibition; stronger effect = higher value; concentration not given here
The campaign covered roughly 1,100 compounds. About 760 (69%) were called active. So high a share suggests a set chosen from earlier hits. This is one part of the list.
VALUE TYPE: inhibition (%)
Numbers only here, please. The scale is %.

COMPOUND: COc1ccc(Cl)cc1NC(=O)CC12CC3CC(CC(C3)C1)C2
inhibition (%): 2.06
//
COMPOUND: COc1ccc(NC(=O)CC23CC4CC(CC(C4)C2)C3)cc1Cl
inhibition (%): 86.9
//
COMPOUND: Cc1cc(C)nc(N=C(N)Nc2cc(Cl)ccc2Oc2ccccc2)n1
inhibition (%): 99.6

Moving on to another compound below.
Field request: inhibition | item: CC(=N/N=C1\NC(=O)C(Cc2ccc(F)cc2)S1)c1ccc(Cl)cc1 (centres undefined)
-27.8

Data origin: PubChem BioAssay AID1259417
